test system: LpxC enzyme; experiment: LpxC enzyme assay (RapidFire high-throughput mass spectrometry); assay type: biochemical; conditions: concentration 1.56 (unit not given)
parameterMeasured: LpxC enzyme assay rating (% inhibition at indicated concentrations)

Value of LpxC enzyme assay rating (% inhibition at indicated concentrations) reported for the compound CN(C)C(=O)[C@H](O)[C@@H](O)C(=O)N1CCC(c2ccc(C(F)(F)F)cc2)CC1 [Compound 51] is B (10-30% inhibition)

Value of LpxC enzyme assay rating (% inhibition at indicated concentrations) reported for the compound O=C(Nc1ccc(C#Cc2ccccc2)cc1)[C@H](O)[C@@H](O)C(=O)N1CCCC1 [Compound 63] is B (10-30% inhibition)

Value of LpxC enzyme assay rating (% inhibition at indicated concentrations) reported for the compound CNC(=O)[C@H](O)[C@@H](O)C(=O)Nc1ccc(-n2cccn2)cc1 [Compound 41] is B (10-30% inhibition)
